Assign max response to each entry below.
Assay: qHTS Assay for Lipid Storage Modulators (AID 1519)
Conditions: Drosophila S3 cells, BODIPY lipid droplet/cell ratio, laser cytometry; measured here: cell count channel max response; cells loaded with oleic acid
Inconclusive results are not listed.
Value expressed in %; do not type the unit.

What measured max response goes with `OC1(c2ccc(Cl)cc2)CCN(Cc2c[nH]c3ccccc23)CC1` ?
-29.2

What measured max response goes with C[N+]1(C)CCc2cc3c(cc2C1C1OC(=O)c2c1ccc1c2OCO1)OCO3 (centres undefined) ?
1.78

What measured max response goes with `Oc1ccc2c3c1O[C@H]1c4[nH]c5c(c4C[C@@]4(O)[C@@H](C2)N(CC2CC2)CC[C@]314)C[C@]1(O)[C@H]2Cc3ccc(O)c4c3[C@@]1(CCN2CC1CC1)[C@@H]5O4` ?
16.4

What measured max response goes with `NC[C@@H](CC(=O)O)c1ccc(Cl)cc1` ?
11.7

What measured max response goes with `C=CCN1C[C@H](C)N([C@@H](c2ccccc2)c2ccc(C(=O)N(CC)CC)cc2)C[C@H]1C` ?
14.7

What measured max response goes with `N[C@H](C(=O)O)c1cc(=O)[nH]o1` ?
-3.07

What measured max response goes with CCC1CN2CCC1CC2C(O)c1ccnc2ccccc12 (centres undefined) ?
-1.23

What measured max response goes with COC1C(O)C(C)O[C@@H](OC2CC[C@@]3(C)C4CC[C@]5(C)C(C6=CC(=O)OC6)CC[C@@]5(O)C4CC[C@@H]3C2)C1O (some centres undefined) ?
8.32

What measured max response goes with CN1[C@H]2CC(OC(=O)[C@@H](CO)c3ccccc3)C[C@H]1[C@H]1O[C@H]12 (some centres undefined) ?
9.59

====

Assay: Cytotoxicity counterscreen for inhibitors of SARS-CoV-2 cell entry (AID 1645845); also: nearly all actives have a fitted effect of over 50% in size
Conditions: cell viability (SARS-CoV-2 entry assay cells); series mostly up to 57.1 µM
Results filed as inconclusive are left out. Active and inactive are the calls of the source. Calls follow the shape of the full dose curve. Peptide text beside a SMILES is read from it. * marks the point of attachment. Cbz = O=C(OCc1ccccc1)*
A correct response names exactly one class from true (1) = active, false (0) = inactive

Look up the recorded call for Cc1ccccc1C(C(=O)NC1CCCCC1)N(C(=O)CNc1ccc(C#N)cc1)c1cccc(F)c1 (stereo not given) in this test.
false (0)

Look up the recorded call for `Nc1cccc(-c2cc3c(Oc4cccc(O)c4)ncnc3[nH]2)c1` in this test.
false (0)

Look up the recorded call for `CC(=O)OC[C@@H]1O[C@@H](n2ccc(=O)[nH]c2=O)[C@H](OC(C)=O)[C@H]1OC(C)=O` in this test.
false (0)

Look up the recorded call for CC(C)C[C@@H](C=O)NC(=O)[C@H](CC(C)C)NC(=O)[C@H](CC(C)C)NC(=O)OCc1ccccc1 (Cbz-Leu-Leu-Leu-aldehyde) in this test.
true (1)

Look up the recorded call for C[S+](C)CCC(N)C(=O)O (stereo not given) in this test.
false (0)

Look up the recorded call for CC(=O)SCC(Cc1ccccc1)C(=O)NCC(=O)OCc1ccccc1 (stereo not given) in this test.
false (0)

Look up the recorded call for Cc1noc(-c2ccc(CSCCC(=O)O)cc2)c1NC(=O)OC(C)c1ccccc1Cl (stereo not given) in this test.
false (0)

Look up the recorded call for CCN(c1cc(C#CCN2CCOCC2)cc(C(=O)NCc2c(C)cc(C)[nH]c2=O)c1C)C1CCC(N(C)CCOC)CC1 (stereo not given) in this test.
false (0)

Look up the recorded call for `C[C@]12CC[C@@H]3c4ccc(O)cc4CC[C@H]3[C@H]1[C@@H](O)[C@@H](O)[C@H]2O` in this test.
false (0)

Look up the recorded call for `CC(C)Nc1cc(C(F)(F)F)cc2nc(NC(=O)c3cccnc3)nn12` in this test.
false (0)

====

Assay: qHTS for Inhibitors of the Functional Ribonucleoprotein Complex (vRNP) of Lymphocytic Choriomeningitis Arenaviruses (LCMV): Viability assay - alamar blue signal for LCMV Primary Screen (AID 1347085); also: nearly all actives have a fitted effect of over 80% in size
Details: alamar blue viability counter-screen, LCMV vRNP screen cells; series mostly up to 57.5 µM
Results filed as inconclusive are left out. The source made the active and inactive calls. Calls come from the whole dose curve; tested in HEK293 reporter line.
A correct response names exactly one class from active, inactive

Look up the recorded call for `CC[C@]1(O)C[C@H]2CN(CCC3=c4ccccc4=N[C]3[C@@](C(=O)OC)(c3cc4c(cc3OC)N(C)[C@H]3[C@@](O)(C(N)=O)[C@H](O)[C@]5(CC)C=CCN6CC[C@]43[C@@H]65)C2)C1` in this test.
active

Look up the recorded call for `NC1(Cc2ccc(Cl)cc2)CCN(c2ncnc3[nH]ccc23)CC1` in this test.
active

Look up the recorded call for CN(C)CCCC1(c2ccc(F)cc2)OCc2cc(C#N)ccc21 (centres undefined) in this test.
inactive

Look up the recorded call for `CNc1nc(Nc2ccc(C(=O)N3CCOCC3)cc2OC)ncc1Cl` in this test.
inactive

====

Target: Luciferin 4-monooxygenase (Photinus pyralis)
Assay: Primary firefly luciferase (FLuc) qHTS assay for identification of artifact compounds. (AID 1845220); also: nearly all actives have a fitted effect of over 60% in size
Settings: purified firefly luciferase, luminescence, 5 min; at 54.1 µM (top of the series) unless noted; series mostly up to 54.1 µM
Calls of active or inactive are those of the source. The call rests on the fitted dose curve; in most records, active means well fitted inhibition curve with a large enough effect; inconclusive means small, poorly fitted or top-dose-only effect; inactive means flat fitted curve, though single readings scatter.
metric name: outcome

COC1CC(O[C@H]2CC[C@@]3(C)C(CCC4C3CC[C@]3(C)[C@@H](C5=CC(=O)OC5)CC[C@]43O)C2)OC(C)C1O (some centres undefined)    inactive
C[C@H]1CN(CC[C@H](O)C2CCCCC2)CC[C@@]1(C)c1cccc(O)c1    inactive
COc1ccc2c3c([nH]c2c1)C(C=C(C)C)N1C(=O)C2CCCN2C(=O)C1C3 (centres undefined)    inactive

====

System: Nanoluciferase (engineered Oplophorus gracilirostris luciferase)
Assay: Primary Nanoluciferase (NLuc) qHTS assay for identification of artifact compounds. (AID 1845222);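 also: NLuc secreted into diluted conditioned medium of S16 cells; 0% = DMSO and -100% = no enzyme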
Conditions: NLuc-conditioned medium, Nano-Glo luminescence, 5 min; series mostly up to 54.1 µM
Activity calls are given as the source filed them. The call rests on the fitted dose curve; in most records, active means well fitted inhibition curve with a large enough effect; inconclusive means small, poorly fitted or top-dose-only effect; inactive means flat fitted curve, though single readings scatter.
metric name: activity, negative = inhibition

Example entries begin here.
Cc1c(N[C@@H](c2nnc(-c3ccc(C#N)cc3)o2)[C@H](C)O)ccc(C#N)c1Cl    inactive
C[C@]12CC[C@H](O)C[C@H]1CC[C@@H]1[C@@H]2[C@H](O)C[C@]2(C)[C@@H](c3ccc(=O)oc3)CC[C@]12O    inactive
O=C(NCCN1CCC2(CC1)C(=O)NCN2c1cccc(F)c1)c1ccc2ccccc2c1    inactive
c1ccc(C2(c3ccccc3)OC[C@@H]([C@H]3CCCCN3)O2)cc1    inactive

Now let's try a different one.
What measured activity, negative = inhibition goes with `N#Cc1cn([C@@H]2O[C@H](CO)[C@H](O)[C@@H]2O)c2ncnc(N)c12` ?
inactive

====

Assay: qHTS for differential inhibitors of proliferation of Plasmodium falciparum line Dd2 (AID 1882); also: nearly all actives have a fitted effect of over 65% in size
Conditions: Plasmodium falciparum Dd2 proliferation inhibition; series mostly up to 28.7 µM
Inconclusive results are not listed. Activity calls are given as the source filed them. Calls come from the whole dose curve; as a rule, active = well fitted inhibition curve with a large enough effect; inconclusive = small, poorly fitted or top-dose-only effect; inactive = flat fitted curve, though single readings scatter.
A correct response names exactly one class from active, inactive

Look up the recorded call for `COc1ccc(-n2nc(C(F)(F)F)cc2-c2ccc(Cl)cc2)cc1` in this test.
inactive

Look up the recorded call for C[N+]1(C)CCc2cc3c(cc2C1C1OC(=O)c2c1ccc1c2OCO1)OCO3 (stereo unspecified) in this test.
inactive

Look up the recorded call for `COc1ccc(CCN)cc1O` in this test.
inactive

Look up the recorded call for `CC(=O)OCC1=C(C(=O)[O-])N2C(=O)[C@@H](NC(=O)CCC[C@@H](N)C(=O)[O-])[C@H]2SC1.[Zn+2]` in this test.
inactive

Look up the recorded call for `COc1ccc2[nH]cc(CCN(C)C)c2c1` in this test.
inactive

Look up the recorded call for `N#C/C(=C\c1ccc(O)c(O)c1)C(=O)NCCCNC(=O)/C(C#N)=C/c1ccc(O)c(O)c1` in this test.
active

====

Test system: HeLa
Test: Primary qHTS to identify gynecologic anti-cancer compounds using libraries of approved drugs and bioactive compounds (AID 1345084); also: nearly all actives have a fitted effect of over 55% in size
Details: Gynecologic cancer cell panel viability, ATPlite luminescence, 48 h; series mostly up to 57.5 µM
Results filed as inconclusive are left out. Activity calls are given as the source filed them. Calls come from the whole dose curve; as a rule, active = well fitted cell-killing curve with a large enough effect; inconclusive = small, poorly fitted or top-dose-only effect, or effect the other way; inactive = flat fitted curve, though single readings scatter.
A correct response names exactly one class from active, inactive

Look up the recorded call for COc1cccc(NCC(F)Cn2c3ccc(Br)cc3c3cc(Br)ccc32)c1 (stereo not drawn) in this test.
inactive

Look up the recorded call for `C[C@]12CC[C@H](O)C[C@@]1(O)CC[C@@H]1[C@@H]2CC[C@]2(C)[C@@H](c3ccc(=O)oc3)CC[C@]12O` in this test.
inactive

Look up the recorded call for `CC(=O)N1N=C(c2ccc(N)cc2)c2cc3c(cc2C[C@H]1C)OCO3` in this test.
inactive

Look up the recorded call for `CN=C(NS(=O)(=O)c1ccc(Cl)cc1)N1C[C@H](c2ccccc2)C(c2ccc(Cl)cc2)=N1` in this test.
inactive

Look up the recorded call for `O=C1CN=C(c2ccccc2Cl)c2cc(Br)ccc2N1` in this test.
inactive

Look up the recorded call for CC1=CC(=O)[C@@H](O)[C@]2(C)C3[C@@H](O)[C@@H]4OC(=O)[C@@H]([C@H]4C)[C@]3(C)C(=O)[C@H](O)[C@@H]12 (stereo partly drawn) in this test.
inactive

Look up the recorded call for `Oc1ccc2c(c1)C13CCCC[C@H]1[C@@H](C2)N(CC1CCC1)CC3` in this test.
inactive

Look up the recorded call for CC1=CC(=O)[C@@H](O)[C@]2(C)C3[C@@H](O)[C@@H]4OC(=O)[C@@H]([C@H]4C)[C@]3(C)C(=O)C[C@@H]12 (stereo partly drawn) in this test.
inactive

Look up the recorded call for `C[C@H]1O[C@@H](n2cnc3c(N)ncnc32)C[C@@H]1O` in this test.
inactive

Look up the recorded call for `Clc1ccc([C@]23CNC[C@H]2C3)cc1Cl` in this test.
inactive

Look up the recorded call for C[C@]12CC[C@@H](O[C@@H]3O[C@H](CO)[C@@H](O)[C@H](O)[C@H]3O)C[C@@]1(O)CCC1C2CC[C@]2(C)[C@@H](C3=CC(=O)OC3)CC[C@]12O (stereo partly drawn) in this test.
active

Look up the recorded call for `CC(=O)O[C@H]1CC[C@H]2[C@@H]3CC[C@H]4CC(=O)C=C(C)[C@]4(C)[C@H]3CC[C@]12C` in this test.
inactive

Look up the recorded call for `CCCCCn1cc(C(=O)C2C(C)(C)C2(C)C)c2ccccc21` in this test.
inactive

Look up the recorded call for `C[C@]12CC[C@H](O)C[C@H]1CC[C@@H]1[C@@H]2[C@H](O)C[C@]2(C)[C@@H](c3ccc(=O)oc3)CC[C@]12O` in this test.
active

Look up the recorded call for `C[C@@H]1CCC/C=C/[C@H]2C[C@@H](O)C[C@@H]2[C@@H](O)/C=C/C(=O)O1` in this test.
active

Look up the recorded call for C/C=C(\C)C(O)C(C)/C=C(C)/C=C/C/C(C)=C/Cc1nc(OC)c(OC)c(O[C@@H]2O[C@@H](C)[C@H](O)[C@@H](O)[C@H]2O)c1C (stereo partly drawn) in this test.
inactive

Look up the recorded call for CC(=O)C1CCC2C3CCC4C[C@@H](O)CCC4(C)C3CCC12C (stereo partly drawn) in this test.
inactive

Look up the recorded call for `CCCCn1cc(C(=O)c2cccc3ccccc23)c2ccccc21` in this test.
inactive
